Cited source: the supplement of paper PMC10724198

Test system: Saccharomyces cerevisiae
assay comment: protein stability index of tFT-peptide fusion (C-terminal peptide) (PSI (0-1 scale)); higher = more stable (slower turnover)
applied conditions: genetic background: wild type; temperature: 30 C
protein stability index values by entry
# answer = number (no unit)

# annotated cases, reported protein stability index shown
| seq | protein stability index |
| --- | --- |
| PEMTRRGRGPRR [RPA49 C-terminal 12 aa] | 0.673 |
| RGRGALVDSDDE [ELF1 C-terminal 12 aa] | 0.674 |
| DGWIPTRTDDVK [TAD1 C-terminal 12 aa] | 0.707 |
| VKHQPKTYRTKK [SGO1 C-terminal 12 aa] | 0.677 |
| GRVHGEEDPTKK [HSP12 C-terminal 12 aa] | 0.695 |

Please find the next sequence below.
Prompt: Could you tell me which protein stability index is on file for ILMNEFAFNPKV [LEU3 C-terminal 12 aa] ?
Completion: 0.708

###

Test system: Saccharomyces cerevisiae
assay comment: protein stability index of tFT-peptide fusion (C-terminal peptide) (PSI (0-1 scale)); higher = more stable (slower turnover)
applied conditions: genetic background: wild type; temperature: 30 C
endpoint: protein stability index

| seq | tested on | experimental result |
| --- | --- | --- |
| IWGGAVQARFKG | Saccharomyces cerevisiae | 0.733 |

Prompt: Could you tell me which protein stability index is on file for VSRQHLPAVLHL ?
Completion: 0.661

Prompt: Could you tell me which protein stability index is on file for WRWCGLWDTRTY ?
Completion: 0.819

Prompt: Could you tell me which protein stability index is on file for VGRGEEYYGMEV ?
Completion: 0.634

Prompt: Could you tell me which protein stability index is on file for AGALAVALPCIC ?
Completion: 0.5

Prompt: Could you tell me which protein stability index is on file for GGGGGEWCLVRL ?
Completion: 0.688

Prompt: Could you tell me which protein stability index is on file for HGFSRFAACNGV ?
Completion: 0.666

Prompt: Could you tell me which protein stability index is on file for LRFSLLRVGWLC ?
Completion: 0.434

Prompt: Could you tell me which protein stability index is on file for PFVGFSLLWLGF ?
Completion: 0.567

Prompt: Could you tell me which protein stability index is on file for GCGEGNVRPCEL ?
Completion: 0.635

###

Tested on: Saccharomyces cerevisiae
assay comment: protein stability index of tFT-peptide fusion (C-terminal peptide) (PSI (0-1 scale)); higher = more stable (slower turnover)
applied conditions: genetic background: wild type; temperature: 30 C
endpoint: protein stability index
# answer = number (no unit)

# annotated cases, reported protein stability index shown
| seq | tested on | protein stability index |
| --- | --- | --- |
| FPSLPSPSPSSH | Saccharomyces cerevisiae | 0.684 |
| NYSKPSYLVRAK | Saccharomyces cerevisiae | 0.697 |
| MSQVRYQRATRA | Saccharomyces cerevisiae | 0.54 |
| GLMSVRYSGTGV | Saccharomyces cerevisiae | 0.674 |
| RNTPTATHHTTG | Saccharomyces cerevisiae | 0.681 |

Prompt: Could you tell me which protein stability index is on file for VVGRGGLICGRW ?
Completion: 0.625

Prompt: Could you tell me which protein stability index is on file for AGLLGVVGGRFG ?
Completion: 0.699

###

Tested on: Saccharomyces cerevisiae
assay comment: protein stability index of tFT-peptide fusion (C-terminal peptide) (PSI (0-1 scale)); higher = more stable (slower turnover)
applied conditions: genetic background: cdc53-1; temperature: 37 C
protein stability index values by entry
# answer = number (no unit)

# annotated cases, reported protein stability index shown
| seq | protein stability index |
| --- | --- |
| GLLSLSGLRWFC | 0.747 |
| FFACSLLFVLVF | 0.175 |

Prompt: Record PPRSRPLLRPLP : what is its protein stability index with Saccharomyces cerevisiae?
Completion: 0.726

Prompt: Record RCIFYHSPVLCL : what is its protein stability index with Saccharomyces cerevisiae?
Completion: 0.515

Prompt: Record LSFFICSFFFVL : what is its protein stability index with Saccharomyces cerevisiae?
Completion: 0.556

Prompt: Record PTYTKYRTRQIN : what is its protein stability index with Saccharomyces cerevisiae?
Completion: 0.745
